Target: T1, hK1 (human tissue kallikrein 1), recombinant (human, UniProt P06870 25-262)
T1 construct: Expressed in P. pastoris from KLK1 cDNA and purified; enzymatically active; also called KLK1; Recombinant (Pichia) Kallikrein
Assay: SPR

BINDER: M0103-E09 (Fab, V domains shown) VH: EVQLLESGGGLVQPGGSLRLSCAASGFTFSHYSMLWVRQAPGKGLEWVSSIRPSGGFTKYADSVKGRFTISRDNSKNTLYLQMNSLRAEDTAVYYCARRGVWDAFDIWGQGTMVTVSS VL: AQYELTQPASVSGSPGQSITISCTGTNTDVGGYNFVSWYQQYPGKAPKLIIFDVTNRPSGVSNRFSGSKSGNTASLTISGLQAEDEADYYCCSYTNTNTLVFAGGTKVTVLG
kon: 243000 M⁻¹ s⁻¹
--
BINDER: M0114-E02 (Fab, V domains shown) VH: EVQLLESGGGLVQPGGSLRLSCAASGFTFSHYKMMWVRQAPGKGLEWVSYIYPSGGWTGYADSVKGRFTISRDNSKNTLYLQMNSLRAEDTAVYYCARVGPWDAFDIWGQGTMVTVSS VL: DIQMTQSPATLSLSPGERATLSCRASQSVGGYLAWYQQKPGQAPRLLIYDASKRATGIPARFSGSGSGTDFTLTISSLEPEDFAVYYCQQRSKWPPYTFGQGTKLEIKR
kon: 403000 M⁻¹ s⁻¹
--
BINDER: M0135-F03 (Fab, V domains shown) VH: EVQLLESGGGLVQPGGSLRLSCAASGFTFSHYVMIWVRQAPGKGLEWVSWIYPSGGNTIYADSVKGRFTISRDNSKNTLYLQMNSLRAEDTATYYCARVGVWYGMDVWGQGTTVTVSS VL: DIQMTQSPATLSLSPGERATLSCRASQSVSSYLAWYQQKPGQAPRLLIYDASNRATGIPARFSGSGSGTDFTLTISSLEPEDFAVYYCQQRSNWPSPIAFGQGTRLEIKR
kon: 235000 M⁻¹ s⁻¹
--
BINDER: M0116-E08 (Fab, V domains shown) VH: EVQLLESGGGLVQPGGSLRLSCAASGFTFSRYPMIWVRQAPGKGLEWVSVIYPSGGMTKYADSVKGRFTISRDNSKNTLYLQMNSLRAEDTAVYYCARVGSYGSLGYWGQGTLVTVSS VL: DIQMTQSPSSLSASVGDRVTITCLASQSISSYLNWYQQKPGKAPKLLIYDASSLESGVPSRFSGSGSGTDFTLTISSLQPEDFAIYYCQQFNGYPPITFGQGTRLEIKR
kon: 225000 M⁻¹ s⁻¹
--
BINDER: M0122-A05 (Fab, V domains shown) VH: EVQLLESGGGLVQPGGSLRLSCAASGFTFSHYPMHWVRQAPGKGLEWVSSIWPSGGHTSYADSVKGRFTISRDNSKNTLYLQMNSLRAEDTATYYCARLSQPIWGQGTLVTVSS VL: DIQMTQSPSSFSASTGDRVTITCRASQSISRWLAWYQQKPGKAPKLLIYEASTLESGVPSTFSGSGSGTEFTLTISSLQPDDFATYYCQQYNSYPLTFGGGTKVEIKR
kon: 147000 M⁻¹ s⁻¹
--
BINDER: M0094-E08 (Fab, V domains shown) VH: EVQLLESGGGLVQPGGSLRLSCAASGFTFSFYAMVWVRQAPGKGLEWVSYISPSGGATWYADSVKGRFTISRDNSKNTLYLQMNSLRAEDTAVYYCAKPSRPRYYYDSSGYYSSAFDIWGQGTMVTVSS VL: AQSVLTQPASVSGSPGQSITISCTGTSSDVGAYNYVSWYQQHPGKVPELMIYDVSNRPSGVSHRFSGSKSGNTASLTISGLQAEDDADYYCSSFTSRKTWVFGTGTKVTVLG
kon: 159000 M⁻¹ s⁻¹
--
BINDER: M0116-C09 (Fab, V domains shown) VH: EVQLLESGGGLVQPGGSLRLSCAASGFTFSNYKMHWVRQAPGKGLEWVSSIYPSGGWTVYADSVKGRFTISRDNSKNTLYLQMNSLRAEDTAVYYCATGYSSTWGAFDIWGQGTMVTVSS VL: AQSALTQPPSVSVSPGQTASITCFGDKLGDKYGSWYQQKPGQSPVLVLYQYWKRPSGIPERFSGSNSGNTATLTINVTQTMDEADYYCQAWDSNTVVFGGGTKLTVLG
kon: 520000 M⁻¹ s⁻¹
--
BINDER: M0105-F02 (Fab, V domains shown) VH: EVQLLESGGGLVQPGGSLRLSCAASGFTFSRYWMAWVRQAPGKGLEWVSSIGPSGGSTKYADSVKGRFTISRDNSKNTLYLQMNSLRAEDTAVYYCARTARWLSFDYWGQGTLVTVSS VL: DIQMTQSPSTLSASVGDRVTITCRASQSISSWLAWYQQKPGEAPKLLIYAASSLRNGVPSRFIGSGSGTDFTLTISSLQPEDFATYYCQQSYSTPPTFGGGTKVEIKR
kon: 947000 M⁻¹ s⁻¹
--
BINDER: M0122-D01 (Fab, V domains shown) VH: EVQLLESGGGLVQPGGSLRLSCAASGFTFSHYIMHWVRQAPGKGLEWVSGIYPSGGSTKYADSVKGRFTISRDNSKNTLYLQMNSLRAEDTAVYYCARALVGALDYWGQGTLVTVSS VL: DIQMTQSPSSVSASVGDRVTITCRASQDIRTWLAWYQQKSGKAPKLLIYSSSSLQSGISSRFSGSGSGTDFTLTISNLQPEDSAIYYCQQATTFPWTFGQGTKVEIKR
kon: 205000 M⁻¹ s⁻¹
--
BINDER: M0104-H12 (Fab, V domains shown) VH: EVQLLESGGGLVQPGGSLRLSCAASGFTFSYYQMSWVRQAPGKGLEWVSRIGPSGGLTSYADSVKGRFTISRDNSKNTLYLQMNSLRAEDTAVYYCARVGVWYGMDVWGQGTLVTVSS VL: AQSELTQPPSASGSPGQSVTISCTGTSSDVGAYNYVSWYQQHPGKAPKLIIYEVNKRPSGVPDRFSASKSGNTASLTVSGLQAEDEADYYCNSYAGSNSLIFGGGTKLTVLG
kon: 567000 M⁻¹ s⁻¹

These entries and their values trace back to patent US7329737.
